Tested on: SK-MEL-2 melanoma
METHOD SUMMARY: NCI tumour cell line growth inhibition, 48 h
Classification field: enter rule met for TGI values not below 40 µM, rule not met for values below it.

[
  {
    "COMPOUND": "CC(=O)OCC1OC(OCC2OC(N3C(=S)N[C@H]([C@@H](O)[C@H](O)[C@H](O)CO)[C@H]3O)C(OC(C)=O)C(OC(C)=O)C2OC(C)=O)C(OC(C)=O)C(OC(C)=O)C1OC(C)=O (some centres undefined)",
    "MEASURED TARGET": "SK-MEL-2 melanoma",
    "CATEGORY LABEL": "rule met"
  },
  {
    "COMPOUND": "O=C1C=C(N2CC2)c2ccccc2C1=O",
    "MEASURED TARGET": "SK-MEL-2 melanoma",
    "CATEGORY LABEL": "rule not met"
  },
  {
    "COMPOUND": "CC(C)OC(=O)c1ccc(CCC2=CC(=O)C(Br)=CC2=O)cc1",
    "MEASURED TARGET": "SK-MEL-2 melanoma",
    "CATEGORY LABEL": "rule met"
  },
  {
    "COMPOUND": "CC(C)[C@@H](C(=O)O[C@@H]1/C=C/C(=O)O[C@@H](C)CCC/C=C/[C@@H]2C[C@H](O)C[C@H]21)[N+](C)(C)C",
    "MEASURED TARGET": "SK-MEL-2 melanoma",
    "CATEGORY LABEL": "rule met"
  },
  {
    "COMPOUND": "COc1cc2c3c(cc(Cl)nc3c1OC)C(O)(CC(C)=O)C(=O)N2 (centres undefined)",
    "MEASURED TARGET": "SK-MEL-2 melanoma",
    "CATEGORY LABEL": "rule met"
  },
  {
    "COMPOUND": "Oc1[nH]c2ccccc2c1N=NC(=S)N1CCCCCC1",
    "MEASURED TARGET": "SK-MEL-2 melanoma",
    "CATEGORY LABEL": "rule not met"
  },
  {
    "COMPOUND": "CCC[CH2][Sn]1([CH2]CCC)[O]C(=O)C[S]1",
    "MEASURED TARGET": "SK-MEL-2 melanoma",
    "CATEGORY LABEL": "rule not met"
  }
]
